Provenance of the data: patent US3963756A

Biological target: Tyrosine Hydroxylase (Bos taurus, UniProt P17289)
Sequence (P17289 whole entry): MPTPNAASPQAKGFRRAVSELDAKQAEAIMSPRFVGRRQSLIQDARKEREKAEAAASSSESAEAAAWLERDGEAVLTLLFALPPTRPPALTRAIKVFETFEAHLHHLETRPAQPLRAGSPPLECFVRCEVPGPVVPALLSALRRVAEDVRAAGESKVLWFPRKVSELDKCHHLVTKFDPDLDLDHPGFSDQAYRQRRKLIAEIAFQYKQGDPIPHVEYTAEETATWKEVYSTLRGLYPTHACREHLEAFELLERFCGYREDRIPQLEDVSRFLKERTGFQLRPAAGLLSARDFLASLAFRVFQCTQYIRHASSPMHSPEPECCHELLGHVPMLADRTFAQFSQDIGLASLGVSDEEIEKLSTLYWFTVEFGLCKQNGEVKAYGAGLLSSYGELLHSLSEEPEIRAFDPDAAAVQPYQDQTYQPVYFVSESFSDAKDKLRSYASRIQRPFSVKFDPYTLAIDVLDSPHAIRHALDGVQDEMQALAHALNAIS
Test: Inhibition of tyrosine hydroxylase (TH)
Type: biochemical
Conditions: 100 mcg/cc
Measured Metric: inhibition at 100 µg/mL
Quote the value and follow it with the unit of measurement.

Below: 5 molecules and their reported inhibition at 100 µg/mL.
Molecule: CC1=CC(=O)C(C(=O)CCc2ccc3c(c2)OCO3)C(=O)O1 (centres unmarked) [Example 3]
Measured Metric: inhibition at 100 µg/mL
Result: 13.7%

Molecule: CC1=CC(=O)C(C(=O)CCc2cccs2)C(=O)O1 (centres unmarked) [Example 38]
Measured Metric: inhibition at 100 µg/mL
Result: 52.3%

Molecule: CC1=CC(=O)C(C(=O)CCc2ccc(F)cc2)C(=O)O1 (centres unmarked) [Example 31]
Measured Metric: inhibition at 100 µg/mL
Result: 60.1%

Molecule: COc1ccc(CCC(=O)C2C(=O)C=C(C)OC2=O)cc1O (centres unmarked) [Example 2]
Measured Metric: inhibition at 100 µg/mL
Result: 80.8%

Molecule: CC1=CC(=O)C(C(=O)CCc2ccc(Cl)cc2Cl)C(=O)O1 (centres unmarked) [Example 28]
Measured Metric: inhibition at 100 µg/mL
Result: 29.8%

Provide inhibition at 100 µg/mL for all items below, preserving their order.
1. CC1=CC(=O)C(C(=O)CCc2ccc(N(C)C)cc2)C(=O)O1 (centres unmarked) [Example 16]
2. COc1ccc(CCC(=O)C2C(=O)C=C(C)OC2=O)cc1 (centres unmarked) [Example 1]
3. CC1=CC(=O)C(C(=O)CCc2ccccc2O)C(=O)O1 (centres unmarked) [Example 13]
4. COc1cccc(CCC(=O)C2C(=O)C=C(C)OC2=O)c1OC (centres unmarked) [Example 21]

A.
["23%", "40.7%", "44.4%", "39%"]

Please state, for each entry, its recorded inhibition at 100 µg/mL.
1. COc1cc(CCC(=O)C2C(=O)C=C(C)OC2=O)ccc1O (centres unmarked) [Example 19]
2. COc1ccc(CCC(=O)C2C(=O)C=C(C)OC2=O)c(OC)c1 (centres unmarked) [Example 27]
3. CC1=CC(=O)C(C(=O)CCc2ccccc2Cl)C(=O)O1 (centres unmarked) [Example 17]
4. COc1ccccc1CCC(=O)C1C(=O)C=C(C)OC1=O (centres unmarked) [Example 18]
5. CC1=CC(=O)C(C(=O)CCCCc2ccccc2)C(=O)O1 (centres unmarked) [Example 12]
6. CC1=CC(=O)C(C(=O)CCc2ccc(O)c(O)c2)C(=O)O1 (centres unmarked) [Example 9]
7. CC1=CC(=O)C(C(=O)CCc2ccc(C(F)(F)F)cc2)C(=O)O1 (centres unmarked) [Example 32]
8. CC1=CC(=O)C(C(=O)CCc2ccc(O)cc2)C(=O)O1 (centres unmarked) [Example 7]

A.
1: 14.6%; 2: 20%; 3: 37.1%; 4: 32%; 5: 33.7%; 6: 80.6%; 7: 50.4%; 8: 65.2%

# batch: return inhibition at 100 µg/mL for each of the 3 molecules below
1. CC1=CC(=O)C(C(=O)CCc2ccc(C)o2)C(=O)O1 (centres unmarked) [Example 30]
2. CC1=CC(=O)C(C(=O)CCc2ccc(C(N)=O)cc2)C(=O)O1 (centres unmarked) [Example 33]
3. CC1=CC(=O)C(C(=O)CCc2cc(Cl)cc(Cl)c2O)C(=O)O1 (centres unmarked) [Example 34]

A.
1: 23.5%; 2: 20.5%; 3: 53.6%
